test: Toxic concentration on HRV-14 infected H1- HeLa cells by protection assay.; assay type: toxicity, cell-based; conditions: human, H1-HeLa cells infected with HRV-14; read-out: TC50 (the source's name)
Starred links: 1 amine or outer side, 2 acyl side, 3 side chain; linkers in the order of their positions; H or OH if unused. Non-standard residues stand in square brackets, D forms with d. Residues, ends and D or L forms follow the SMILES beside them. Groups on a side chain read outwards from the residue. *: point of attachment. Isobutyryl = CC(C)C(=O)*; Cbz = O=C(OCc1ccccc1)*; Dap = NC[C@H](N)C(=O)O; Boc = CC(C)(C)OC(=O)*; CO = O=C([*:1])[*:2]; Bz = O=C(c1ccccc1)*; Moc = COC(=O)*; For = O=C*
result-type: CC50 (µM)
Numbers only, in µM.

{"columns": ["compound", "CC50 (µM)"],
 "data": [
  ["CC(C)C[C@H](NC(=O)OCc1ccccc1)C(=O)N[C@@H](Cc1ccccc1)C(=O)N[C@H](C=O)CNC(=O)OC(C)(C)C (Cbz-Leu-Phe-[Dap](Boc)-aldehyde)", 56.2]
]}

Go through the items and report each one's CC50.
1. CC(=O)NC[C@@H](C=O)NC(=O)[C@H](Cc1ccccc1)NC(=O)[C@H](CC(C)C)NC(=O)OCc1ccccc1 (Cbz-Leu-Phe-[Dap](Ac)-aldehyde)
2. CC(C)C[C@H](NC(=O)OCc1ccccc1)C(=O)N[C@@H](Cc1ccccc1)C(=O)N[C@H](C=O)CCC(=O)N(C)C (Cbz-Leu-Phe-Glu(NMe2)-aldehyde)
3. CC(C)C[C@H](NC(=O)OCc1ccccc1)C(=O)N[C@@H](Cc1ccccc1)C(=O)N[C@H](C=O)CCC#N
4. CC(=O)N(C)C[C@@H](C=O)NC(=O)[C@H](Cc1ccccc1)NC(=O)[C@H](CC(C)C)NC(=O)OCc1ccccc1

stdout:
1. 316
2. 63
3. 31
4. 100

Go through the items and report each one's CC50.
1. CC(C)C[C@H](NC(=O)OCc1ccccc1)C(=O)N[C@@H](Cc1ccccc1)C(=O)N[C@H](C=O)CNC(=O)N(C)C (Cbz-Leu-Phe-[Dap]([CO-NMe2])-aldehyde)
2. CC(C)C[C@H](NC(=O)OCc1ccccc1)C(=O)N[C@@H](Cc1ccccc1)C(=O)N[C@H](C=O)CCC(=O)NC(c1ccccc1)(c1ccccc1)c1ccccc1
3. COC(=O)NC[C@@H](C=O)NC(=O)[C@H](Cc1ccccc1)NC(=O)[C@H](CC(C)C)NC(=O)OCc1ccccc1 (Cbz-Leu-Phe-[Dap](Moc)-aldehyde)
4. CC(C)C[C@H](NC(=O)OCc1ccccc1)C(=O)N[C@@H](Cc1ccccc1)C(=O)N[C@H](C=O)CCC(N)=O (Cbz-Leu-Phe-Gln-aldehyde)
5. CC(C)C[C@H](NC(=O)OCc1ccccc1)C(=O)N[C@@H](Cc1ccccc1)C(=O)N[C@H](C=O)CNC(=O)C(C)C (Cbz-Leu-Phe-[Dap](Isobutyryl)-aldehyde)
6. CC(C)C[C@H](NC(=O)OCc1ccccc1)C(=O)N[C@@H](Cc1ccccc1)C(=O)N[C@H](C=O)CNC=O (Cbz-Leu-Phe-[Dap](For)-aldehyde)
7. CC(C)C[C@H](NC(=O)OCc1ccccc1)C(=O)N[C@@H](Cc1ccccc1)C(=O)N[C@H](C=O)CNC(=O)c1ccccc1 (Cbz-Leu-Phe-[Dap](Bz)-aldehyde)
8. CC(C)C[C@H](NC(=O)OCc1ccccc1)C(=O)N[C@@H](Cc1ccccc1)C(=O)N[C@H](C=O)CNC(=O)c1ccno1

stdout:
1: 99; 2: 15.8; 3: 56.2; 4: 398; 5: 18; 6: 206; 7: 51.2; 8: 59.5
